- Assay type: in vivo, human
- measurement setup: human, serum, oral, 250 mg, Serum concentration, Patient 3; approximately 12 hours after 8th AEE788 (250 mg) dose
observation type: concentration at 12 h (ng/mL)
Answers are plain numbers, in ng/mL.

Which concentration at 12 h value belongs to CCN1CCN(Cc2ccc(-c3cc4c(N[C@H](C)c5ccccc5)ncnc4[nH]3)cc2)CC1 ?
141

---

- method notes: Serum pharmacokinetics of AEE788 and its metabolite AQM674
- measurement setup: human, serum, oral, 450 mg/day
observation type: Cmax (ng/mL)
Give bare numbers, in ng/mL.

Which Cmax value belongs to CCN1CCN(Cc2ccc(-c3cc4c(N[C@H](C)c5ccccc5)ncnc4[nH]3)cc2)CC1 ?
148

Where do the numbers come from? From paper PMC4351868.
